- studyTarget: rhPSMA (Homo sapiens (Human), UniProt Q04609)
- Sequence (Q04609 44-750): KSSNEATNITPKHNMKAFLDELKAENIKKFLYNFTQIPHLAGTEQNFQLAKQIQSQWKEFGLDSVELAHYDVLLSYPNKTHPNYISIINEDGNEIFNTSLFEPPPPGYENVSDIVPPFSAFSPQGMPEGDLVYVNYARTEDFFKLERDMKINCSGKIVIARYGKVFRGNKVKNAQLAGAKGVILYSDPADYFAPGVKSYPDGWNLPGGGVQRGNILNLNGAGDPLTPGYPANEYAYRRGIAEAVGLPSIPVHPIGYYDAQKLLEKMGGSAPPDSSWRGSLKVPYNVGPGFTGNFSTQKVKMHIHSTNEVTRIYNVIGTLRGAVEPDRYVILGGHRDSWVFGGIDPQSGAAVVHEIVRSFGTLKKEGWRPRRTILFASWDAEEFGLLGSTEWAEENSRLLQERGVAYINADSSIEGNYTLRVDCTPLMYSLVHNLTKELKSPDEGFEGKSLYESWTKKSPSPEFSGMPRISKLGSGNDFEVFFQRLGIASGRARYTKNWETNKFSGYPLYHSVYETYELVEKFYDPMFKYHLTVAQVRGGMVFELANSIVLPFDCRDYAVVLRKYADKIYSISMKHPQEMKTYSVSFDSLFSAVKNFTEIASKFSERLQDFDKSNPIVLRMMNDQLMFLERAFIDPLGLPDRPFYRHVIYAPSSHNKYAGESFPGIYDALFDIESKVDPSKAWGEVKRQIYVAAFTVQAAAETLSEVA
- testDetails: PSMA inhibition assay (NAAG hydrolysis, Amplex Red)
- Type: biochemical
- recordedConditions: Table 1; mean of triplicate experiments ± SD; 20 μM NAAG
Assign IC50 to each entry below.
Entry rule: numbers only, all in nM.

// field: IC50; key: "O=C(O)CC[C@H](NC(=O)N[C@@H](CCCCn1cc(CNc2ccc([N+](=O)[O-])cc2[N+](=O)[O-])nn1)C(=O)O)C(=O)O" ; value = 1.76

// field: IC50; key: COCCOCCOCc1cn(CCCC[C@H](NC(=O)N[C@@H](CCC(=O)O)C(=O)O)C(=O)O)nn1 [9, MeO-P2] ; value = 40.8

// field: IC50; key: "COCCOCCOCCOCCOCCOCCOCCOCCOCc1cn(CCCC[C@H](NC(=O)N[C@@H](CCC(=O)O)C(=O)O)C(=O)O)nn1" ; value = 131

// field: IC50; key: "O=C(O)CC[C@H](NC(=O)N[C@@H](CCCCn1cc(COCCOCCOCCOCCOCCOCCNc2ccc([N+](=O)[O-])cc2[N+](=O)[O-])nn1)C(=O)O)C(=O)O" ; value = 2.29

// field: IC50; key: "COCc1cn(CCCC[C@H](NC(=O)N[C@@H](CCC(=O)O)C(=O)O)C(=O)O)nn1" ; value = 30.5

// field: IC50; key: "COCCOCCOCCOCCOCCOCCOCCOCCOCCOCCOCCOCCOCc1cn(CCCC[C@H](NC(=O)N[C@@H](CCC(=O)O)C(=O)O)C(=O)O)nn1" ; value = 165

// field: IC50; key: "O=C(O)CC[C@H](NC(=O)N[C@@H](CCCCn1cc(COCCOCCOCCOCCOCCOCCOCCOCCOCCOCCOCCOCCNc2ccc([N+](=O)[O-])cc2[N+](=O)[O-])nn1)C(=O)O)C(=O)O" ; value = 37.3

// field: IC50; key: O=C(O)CC[C@H](NC(=O)N[C@@H](CCCCn1cc(COCCNc2ccc([N+](=O)[O-])cc2[N+](=O)[O-])nn1)C(=O)O)C(=O)O [2, ARM-P1] ; value = 1.05

###

- studyTarget: rhPSMA (Homo sapiens (Human))
- testDetails: PSMA inhibition assay (NAAG hydrolysis, Amplex Red)
- Type: biochemical
- recordedConditions: Table 2 analogues
Assign pKi to each entry below.
The scale used: pKi is minus the common logarithm of the concentration in molar units.

// field: pKi; key: O=C(O)CC[C@H](NC(=O)N[C@@H](CCCCn1cc(COCCOCCNc2ccccc2)nn1)C(=O)O)C(=O)O [Compound 15] ; value = 9.14

// field: pKi; key: O=C(O)CC[C@H](NC(=O)N[C@@H](CCCCn1cc(COCCOCCNc2ccccc2[N+](=O)[O-])nn1)C(=O)O)C(=O)O [Compound 13] ; value = 10.22

// field: pKi; key: O=C(O)CC[C@H](NC(=O)N[C@@H](CCCCn1cc(COCCOCCNc2ccc([N+](=O)[O-])cc2)nn1)C(=O)O)C(=O)O [Compound 14] ; value = 10.11

// field: pKi; key: COc1ccc(NCCOCCOCc2cn(CCCC[C@H](NC(=O)N[C@@H](CCC(=O)O)C(=O)O)C(=O)O)nn2)cc1 [Compound 16] ; value = 9.01

Values compiled from patent US9296708B2.
